Assay: Selectivity index, ratio of CC50 for mock-infected human MT4 cells to EC50 for HIV1 RES056 expressing reverse transcriptase K103N + Y181C double mutant
Assay type: toxicity, cell-based
Conditions: read-out: Ratio CC50/EC50
Attribute: selectivity ratio

Given smiles	selectivity ratio
Cc1cc(C)c(Oc2cc(NC3CCN(Cc4ccc(Br)cc4)CC3)nc3ncnn23)c(C)c1	< 1
Cc1cc(C)c(Oc2cc(NC3CCN(Cc4cccc(F)c4)CC3)nc3ncnn23)c(C)c1	≤ 1
CC(=O)c1ccc(CN2CCC(Nc3cc(Oc4c(C)cc(C)cc4C)n4ncnc4n3)CC2)cc1	< 1

----------
Test: Selectivity index, ratio of CC50 for mock-infected human MT4 cells to EC50 for HIV1 3B infected in human MT4 cells
Format: toxicity, cell-based
Conditions: mock-infected MT4 cells and MT4 cells infected with HIV1 3B, read-out: Ratio CC50/EC50
Structures can show the parent of a compound that is named as a salt.
Listing: selectivity ratio of selected compounds

Compound	selectivity ratio
O=c1[nH]cnc2c1ncn2[C@H]1CC[C@@H](CO)O1 [DIDANOSINE]	> 9
CC(C)Nc1cccnc1N1CCN(C(=O)c2cc3cc(NS(C)(=O)=O)ccc3[nH]2)CC1 [DELAVIRDINE MESYLATE]	> 67
Nc1ccn([C@@H]2CS[C@H](CO)O2)c(=O)n1 [LAMIVUDINE]	> 39
Cc1cc(C)c(Oc2cc(NC3CCN(Cc4cccc(F)c4)CC3)nc3ncnn23)c(C)c1	≥ 238

----------
Tested on: Human immunodeficiency virus 1
Assay: Antiviral activity against HIV1 3B infected in human MT4 cells assessed as reduction in virus-induced cytopathic effect after 5 days by MTT assay
Format: functional, organism-based
Details: Human immunodeficiency virus 1, 3B, MT4, 120 h
Counter-ions that a name gives are not always drawn.
Lab note: class by EC50, see bottom bin (below 0.02 µM), middle bin (0.02 µM to below 0.09 µM), top bin (0.09 µM or more)

Molecule	Cat
Cc1cc(C)c(Oc2cc(NC3CCN(Cc4ccccc4C#N)CC3)nc3ncnn23)c(C)c1	middle bin
Cc1cc(C)c(Oc2cc(NC3CCN(Cc4ccc([N+](=O)[O-])cc4)CC3)nc3ncnn23)c(C)c1	middle bin
Cc1cc(C)c(Oc2cc(NC3CCN(Cc4cccc(C#N)c4)CC3)nc3ncnn23)c(C)c1	bottom bin
Cc1cc(C)c(Oc2cc(NC3CCN(Cc4cc(F)ccc4F)CC3)nc3ncnn23)c(C)c1	top bin
Cc1cc(C)c(Oc2cc(NC3CCN(Cc4cccc(Cl)c4)CC3)nc3ncnn23)c(C)c1	bottom bin
Cc1cc(C)c(Oc2cc(NC3CCN(Cc4ccc(C(N)=O)cc4)CC3)nc3ncnn23)c(C)c1	middle bin
Cc1cc(C)c(Oc2cc(NC3CCN(Cc4ccccc4)CC3)nc3ncnn23)c(C)c1	middle bin
O=C1Nc2ccc(Cl)cc2[C@@](C#CC2CC2)(C(F)(F)F)O1	bottom bin
Cc1cc(C)c(Oc2cc(NC3CCN(Cc4ccc(F)c(F)c4)CC3)nc3ncnn23)c(C)c1	middle bin
Cc1cc(C)c(Oc2cc(NC3CCN(Cc4ccc(S(C)(=O)=O)cc4)CC3)nc3ncnn23)c(C)c1	bottom bin
Cc1cc(C)c(Oc2cc(NC3CCN(Cc4ccc(F)cc4)CC3)nc3ncnn23)c(C)c1	middle bin
Cc1cc(C)c(Oc2cc(NC3CCN(CC(=O)Nc4ccc(C(=O)O)cc4Br)CC3)nc3ncnn23)c(C)c1	top bin
CC(C)Nc1cccnc1N1CCN(C(=O)c2cc3cc(NS(C)(=O)=O)ccc3[nH]2)CC1 [DELAVIRDINE MESYLATE]	top bin
COC(=O)c1ccc(CN2CCC(Nc3cc(Oc4c(C)cc(C)cc4C)n4ncnc4n3)CC2)cc1	bottom bin
Cc1cc(C)c(Oc2cc(NC3CCN(Cc4cccc(F)c4)CC3)nc3ncnn23)c(C)c1	top bin
